experimentalSystem: T1, purified human CD117 ectodomain (R&D Systems #332-SR) (human, UniProt P10721 26-524)
T1 construct: extracellular domain; Bought protein; also called c-kit; purified recombinant human CD117 ectodomain
T1 sequence (P10721 26-524): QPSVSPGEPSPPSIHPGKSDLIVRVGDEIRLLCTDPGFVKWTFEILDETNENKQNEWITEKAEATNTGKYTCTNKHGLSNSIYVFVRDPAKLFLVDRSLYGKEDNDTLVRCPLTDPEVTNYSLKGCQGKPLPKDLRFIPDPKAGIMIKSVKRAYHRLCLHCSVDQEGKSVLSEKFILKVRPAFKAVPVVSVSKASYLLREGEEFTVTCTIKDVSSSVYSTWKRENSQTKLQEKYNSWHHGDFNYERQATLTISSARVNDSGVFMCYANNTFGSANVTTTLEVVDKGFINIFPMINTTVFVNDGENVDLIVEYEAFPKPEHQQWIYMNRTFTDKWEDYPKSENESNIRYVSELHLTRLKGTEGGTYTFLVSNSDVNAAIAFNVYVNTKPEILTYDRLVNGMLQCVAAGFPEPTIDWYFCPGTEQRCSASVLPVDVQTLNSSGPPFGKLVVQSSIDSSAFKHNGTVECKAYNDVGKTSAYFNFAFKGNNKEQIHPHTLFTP
assayProcedure: BLI (Octet Red96), IgG1 on anti-human Fc sensor, 33.3 and 11 nM ectodomain, 1:1 fit
Listing of entries alongside the reported koff.
endpointLabel: koff (s⁻¹)

HC-77/LC-77 (Ab77) (antibody, IgG1, V domains shown, Purified human antibody tested as an IgG1; hIgG1/hKappa; also called Antibody 77) VH: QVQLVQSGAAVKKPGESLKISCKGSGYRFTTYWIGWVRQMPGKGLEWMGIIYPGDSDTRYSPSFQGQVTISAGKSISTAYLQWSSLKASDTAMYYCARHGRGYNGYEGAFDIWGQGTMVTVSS VL: DIQLTQSPSSLSASVGDRVTITCRASQGVISALAWYQQKPGKAPKLLIYDASILESGVPSRFSGSGSGTDFTLTISSLQPEDFATYYCQQFNSYPLTFGGGTKVEIK; 0.000215
HC-1/LC-1 (Ab1) (antibody, IgG1, V domains shown, Purified IgG (IgG1); also called 001; CK6 derivative Ab1) VH: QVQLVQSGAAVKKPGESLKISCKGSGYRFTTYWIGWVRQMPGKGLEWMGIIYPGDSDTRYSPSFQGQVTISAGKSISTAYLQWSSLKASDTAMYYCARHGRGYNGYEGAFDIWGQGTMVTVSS VL: AIQLTQSPSSLSASVGDRVTITCRASQGVSSALAWYQQKPGKAPKLLIYDASSLESGVPSRFSGSGSGTDFTLTISSLQPEDFATYYCQQFNSYPLTFGGGTKVEIK; 0.0013
HC-79/LC-79 (Ab79) (antibody, IgG1, V domains shown, Purified human antibody tested as an IgG1; hIgG1/hKappa; also called Antibody 79) VH: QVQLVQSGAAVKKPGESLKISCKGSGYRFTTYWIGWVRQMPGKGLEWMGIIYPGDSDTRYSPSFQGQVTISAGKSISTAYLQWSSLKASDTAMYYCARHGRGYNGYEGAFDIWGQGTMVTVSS VL: DIQLTQSPSSLSASVGDRVTITCRASQGVGSALAWYQQKPGKAPKLLIYDASILESGVPSRFSGSGSGTDFTLTISSLQPEDFATYYCQQFNSYPLTFGGGTKVEIK; 0.000478
HC-81/LC-81 (Ab81) (antibody, IgG1, V domains shown, Purified human antibody tested as an IgG1; hIgG1/hKappa; also called Antibody 81) VH: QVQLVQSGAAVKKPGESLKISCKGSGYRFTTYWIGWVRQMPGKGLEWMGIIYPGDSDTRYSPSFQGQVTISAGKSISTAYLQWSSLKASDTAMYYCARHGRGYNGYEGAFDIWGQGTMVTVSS VL: DIQLTQSPSSLSASVGDRVTITCRASQGVISALAWYQQKPGKAPKLLIYDASTLESGVPSRFSGSGSGTDFTLTISSLQPEDFATYYCQQFNSYPLTFGGGTKVEIK; 0.000252
